- Test system: K562
- protocol-description: Antiproliferative activity against human K562 cells
- Assay type: functional
attribute-measured: GI50

CCCCCC/C=C\[N+]([O-])=N\[C@@H](COC)[C@H](C)O [ELAIOMYCIN] | > 50 µg/mL
COC[C@H](/N=[N+]([O-])/C=C/CCCCC(C)=O)[C@H](C)O [ELAIOMYCIN D] | > 50 µg/mL
CCCCCCCC/[N+]([O-])=N/[C@@H](COC)C(N)=O [ELAIOMYCIN H] | 37.5 µg/mL

Would you mind giving GI50 for every compound in the list below?
1. CCCCCCCC/[N+]([O-])=N/[C@@H](COC)[C@H](C)O [ELAIOMYCIN F]
2. COC[C@H](/N=[N+](\[O-])CCCCCCC(C)=O)[C@H](C)O [ELAIOMYCIN G]
3. CCCCCC(O)/C=C/[N+]([O-])=N/[C@@H](COC)[C@H](C)O (stereo partly specified) [ELAIOMYCIN E]

Output line:
1: > 50 µg/mL; 2: > 50 µg/mL; 3: 30.3 µg/mL
